Species on record: Homo sapiens
test.description: Induction of microtubule stabilization in human QBI293 cells assessed as increase in acetylated tubulin levels at 1 uM after 4 hrs by ELISA relative to control
Type: cell-based
Documented fold change (FC) across a set of compounds
API doc: respond with a numeric literal and nothing else, no unit.

// solved cases for fold change (FC) follow
- input.smiles: "CCc1nc(Cl)c(-c2c(F)cccc2F)n1-c1ccc(Cl)cc1"
  fold change (FC): 1.8
- input.smiles: "Cc1nc(Cl)c(-c2c(F)ccc(Cl)c2F)n1-c1ccc(Cl)cc1"
  fold change (FC): 1.7
- input.smiles: "Cc1nc(Cl)c(-c2c(F)cccc2F)n1-c1ccc(Cl)cc1"
  fold change (FC): 2.5
- input.smiles: "COc1cc(F)c(-c2c(Cl)nc(Cl)n2-c2ccc(Cl)cc2)c(F)c1"
  fold change (FC): 3.3
- input.smiles: "Cc1nc(Cl)c(-c2c(F)ccc(F)c2F)n1-c1ccc(Cl)c(F)c1"
  fold change (FC): 3.9
- input.smiles: "COc1cc(F)c(-c2c(Cl)nc(C)n2-c2ccc(Cl)cc2)c(F)c1"
  fold change (FC): 7.1

Asked: Report fold change (FC) for C[C@H](Nc1c(-c2c(F)cc(OCCCN(C)C)cc2F)c(Cl)nc2ncnn12)C(F)(F)F please.
Given back: 6

Asked: What do you have for C[C@H](Nc1c(-c2c(F)cc(F)cc2F)c(Cl)nc2ncnn12)C(F)(F)F ?
Given back: 2.5

Asked: Now give it for COc1ccc(F)c(-c2c(Cl)nc(Cl)n2-c2ccc(Cl)cc2)c1F too.
Given back: 5.1

* * *

test.description: Ratio of drug level in brain to plasma in mouse at 2 mg/kg, ip administered as cassette dosing
Type: ADME, organism-based
conditions: read-out: BPR
Entries annotated with measured Kp

Asked: Using the record for Cc1ncn(-c2ccc(Cl)cc2)c1-c1c(F)ccc(Cl)c1F , report its Kp.
Given back: 1.4

Asked: Also Cc1cc(F)c(-c2c(Cl)ncn2-c2ccc(Cl)cc2)c(F)c1 ?
Given back: 2.5

* * *

Species: Rattus norvegicus
test.description: Inhibition of 5-LOX-mediated LTB4 production in arachidonic acid-stimulated RBL1 cells at 10 uM preincubated for 2 hrs followed by A23187 induction for 15 mins by LC/MS/MS analysis relative to control
List of inhibition values.
# output: bare number, implied unit %

Worked set:
- input.smiles: "Fc1cc(-n2c(-c3c(F)ccc(F)c3F)cnc2Cl)ccc1Cl"
  result.value: 58
- input.smiles: "Cc1ncc(-c2c(F)ccc(F)c2F)n1-c1ccc(Cl)cc1"
  result.value: 45
- input.smiles: "Cc1nc(Cl)c(-c2c(F)ccc(Cl)c2F)n1-c1ccc(Cl)cc1"
  result.value: 84
- input.smiles: "Fc1cccc(F)c1-c1c(Cl)ncn1-c1ccc(Cl)cc1"
  result.value: 76
- input.smiles: "Cc1nc(Cl)c(-c2c(F)cccc2F)n1-c1ccc(Cl)cc1"
  result.value: 87
- input.smiles: "Fc1cccc(F)c1-c1c(Cl)nc(Cl)n1-c1ccc(Cl)cc1"
  result.value: 90
- input.smiles: "Cc1cc(F)c(-c2cncn2-c2ccc(Cl)cc2)c(F)c1"
  result.value: 84
- input.smiles: "Fc1cccc(F)c1-c1c(Cl)nc(Cl)n1-c1ccccc1Cl"
  result.value: 21

Next up:
Asked: Any idea what its inhibition is? The compound is Fc1cccc(F)c1-c1cncn1-c1ccc(Cl)cc1
Given back: 46

* * *

test.description: Change in total alpha-tubulin levels in human QBI293 cells at 1 uM after 4 hrs by ELISA relative to control
conditions: qbi293, 4 h
Known FC of a selection of molecules
Hey, just send me the number, nothing else.

- input.smiles: "Cc1nc(Cl)c(-c2c(F)ccc(F)c2F)n1-c1ccc(Cl)c(F)c1"
  result.value: 0.7
- input.smiles: "Cc1ncc(-c2c(F)ccc(F)c2F)n1-c1ccc(Cl)cc1"
  result.value: 0.9
- input.smiles: "Cc1nc(Cl)c(-c2c(F)cccc2F)n1-c1ccc(Cl)cc1"
  result.value: 0.8

Asked: Can you look up the measured FC of Cc1cc(F)c(-c2c(Cl)nc(Cl)n2-c2ccc(Cl)cc2)c(F)c1 for me?
Given back: 0.7

Asked: Now the same for Cc1nc(Cl)n(-c2ccc(Cl)cc2)c1-c1c(F)ccc(Cl)c1F
Given back: 0.5

Asked: For Cc1nc(Cl)c(-c2c(F)ccc(Cl)c2F)n1-c1ccc(Cl)cc1 then?
Given back: 0.6

Asked: Now consider Fc1cc(F)c(-c2c(Cl)ncn2-c2ccc(Cl)nc2)c(F)c1 .
Given back: 0.8

Asked: Continue with COc1ccc(F)c(-c2c(Cl)nc(Cl)n2-c2ccc(Cl)cc2)c1F
Given back: 0.4

Asked: Next molecule up: Cc1ccc(F)c(-c2c(Cl)ncn2-c2ccc(Cl)cc2)c1F
Given back: 0.8

Asked: Item: COc1ccc(F)c(-c2c(Cl)ncn2-c2ccc(Cl)cc2)c1F
Given back: 0.8

Asked: Note, next up: Fc1ccc(Cl)c(F)c1-c1cnc(Cl)n1-c1ccc(Cl)cc1
Given back: 0.8

* * *

test.description: Drug uptake in mouse brain at 2 mg/kg, ip administered as cassette dosing after 1 hr by LC-MS/MS method
Type: ADME, organism-based
conditions: read-out: Drug uptake
// reported concentration at 1 h for each item listed
Number in nM, nothing else.

Solved cases (5 shown):
- input.smiles: "Cc1ncn(-c2ccc(Cl)cc2)c1-c1c(F)ccc(F)c1F"
  result.value: 400
- input.smiles: "Cc1cc(F)c(-c2c(Cl)ncn2-c2ccc(Cl)cc2)c(F)c1"
  result.value: 300
- input.smiles: "COc1ccc(-n2c(-c3c(F)cc(F)cc3F)cnc2Cl)cc1"
  result.value: 210
- input.smiles: "Cc1ncn(-c2ccc(Cl)cc2)c1-c1c(F)ccc(Cl)c1F"
  result.value: 600
- input.smiles: "Fc1cccc(F)c1-c1c(Cl)ncn1-c1ccc(Cl)cc1"
  result.value: 700

Asked: Any idea what concentration at 1 h was measured for Fc1ccc(F)c(-c2cnc(Cl)n2-c2ccc(Cl)cc2)c1 ?
Given back: 200

Asked: Try Clc1ccc(-n2cnc(Cl)c2-c2ccccc2)cc1 next.
Given back: 200

* * *

test.description: Drug uptake in mouse brain at 5 mg/kg, ip administered as single dose after 1 hr by LC-MS/MS method
Format: ADME, organism-based
conditions: read-out: Drug uptake
Reported values of concentration at 1 h for individual entries
Response body: numeric value in nM, unit text excluded.

Example compounds with recorded concentration at 1 h:
- input.smiles: "Fc1cccc(F)c1-c1cnc(Cl)n1-c1ccc(Cl)cc1"
  measured.quantity: "concentration at 1 h"
  result.value: 900
- input.smiles: "Fc1ccc(F)c(-c2c(Cl)ncn2-c2ccc(Cl)cc2)c1F"
  measured.quantity: "concentration at 1 h"
  result.value: 700
- input.smiles: "Fc1ccc(Br)c(F)c1-c1c(Cl)ncn1-c1ccc(Cl)cc1"
  measured.quantity: "concentration at 1 h"
  result.value: 240

Asked: Report concentration at 1 h for Fc1cc(-n2cnc(Cl)c2-c2c(F)ccc(F)c2F)ccc1Cl please.
Given back: 700

Asked: Let us now turn to Fc1ccc(Cl)c(F)c1-c1c(Cl)ncn1-c1ccc(Cl)cc1
Given back: 400

* * *

test.description: Change in total alpha-tubulin levels in human QBI293 cells at 10 uM after 4 hrs by ELISA relative to control
Type: cell-based
conditions: qbi293, 4 h
Outcome label depends on fold change (FC) relative to 0.7: at/above gives Yes, below gives No.

- input.smiles: "Cc1ncn(-c2ccc(Cl)cc2)c1-c1c(F)ccc(F)c1F"
  group.label: "Yes"
- input.smiles: "COc1cc(F)c(-c2c(Cl)nc(C)n2-c2ccc(Cl)cc2)c(F)c1"
  group.label: "No"
- input.smiles: "Cc1nc(C)n(-c2ccc(Cl)cc2)c1-c1c(F)cccc1F"
  group.label: "Yes"
- input.smiles: "Cc1nc(Cl)c(-c2c(F)ccc(F)c2F)n1-c1ccc(Cl)c(F)c1"
  group.label: "Yes"
- input.smiles: "Cc1ccc(F)c(-c2cnc(Cl)n2-c2ccc(Cl)cc2)c1F"
  group.label: "Yes"

Asked: Quick check, fold change (FC) >= 0.7? Fc1cccc(F)c1-c1cncn1-c1ccc(Cl)cc1
Given back: Yes

Asked: Same lookup for COc1ccc(F)c(-c2c(Cl)nc(Cl)n2-c2ccc(Cl)cc2)c1F , please.
Given back: Yes

Asked: Please give the result for COc1cc(F)c(-c2c(Cl)nc(Cl)n2-c2ccc(Cl)cc2)c(F)c1 too.
Given back: No

* * *

test.description: Plasma concentration in mouse at 2 mg/kg, ip administered as cassette dosing after 1 hr by LC-MS/MS method
Type: ADME, organism-based
# reported concentration at 1 h; entries follow
Response body: numeric value in nM, unit text excluded.

Reference set (5 entries):
- input.smiles: "Cc1ncn(-c2ccc(Cl)cc2)c1-c1c(F)ccc(F)c1F"
  result.value: 200
- input.smiles: "Clc1ccc(-n2cnc(Cl)c2-c2ccccc2)cc1"
  result.value: 80
- input.smiles: "Fc1cccc(F)c1-c1c(Cl)ncn1-c1ccc(Cl)cc1"
  result.value: 400
- input.smiles: "Cc1ncn(-c2ccc(Cl)cc2)c1-c1c(F)ccc(Cl)c1F"
  result.value: 500
- input.smiles: "COc1ccc(-n2c(-c3c(F)cc(F)cc3F)cnc2Cl)cc1"
  result.value: 210

Asked: What does the record list as concentration at 1 h for Fc1ccc(F)c(-c2cnc(Cl)n2-c2ccc(Cl)cc2)c1 ?
Given back: 60

Asked: Let us now turn to Cc1cc(F)c(-c2c(Cl)ncn2-c2ccc(Cl)cc2)c(F)c1
Given back: 110
